Tested on: Soybean seeds cv. Toliman
Test: Soybean seedling emergence in saturated warm test (seed treatment)
Format: in vivo
Details: 0.05 g ai/kg seeds
Quantity name: Total shoot dry mass (g)
Respond with the bare value in g.

Prompt: Soybean seeds cv. Toliman / Total shoot dry mass / CC1=CC(OC=C2C(=O)N(c3ccccc3)C3c4ccccc4CC23)OC1=O (stereo not drawn) : value?
Completion: 5.918

Prompt: Soybean seeds cv. Toliman / Total shoot dry mass / CC1=CC(OC=C2C(=O)N(C(=O)OC(C)(C)C)C3c4ccccc4CC23)OC1=O (mixture of isomers) : value?
Completion: 6.148

Prompt: Soybean seeds cv. Toliman / Total shoot dry mass / CC(=O)N1C(=O)C(=COC2C=C(C)C(=O)O2)C2Cc3ccccc3C21 (stereo not drawn) : value?
Completion: 5.920

Prompt: Soybean seeds cv. Toliman / Total shoot dry mass / CC1=CC(OC=C2C(=O)NC3c4ccccc4CC23)OC1=O (stereo not drawn) [Compound B1] : value?
Completion: 5.935

Continuing:
Prompt: Soybean seeds cv. Toliman / Total shoot dry mass / CC1=CC(OC=C2C(=O)NC3c4cccc(Br)c4CC23)OC1=O (stereo not drawn) : value?
Completion: 6.325

Prompt: Soybean seeds cv. Toliman / Total shoot dry mass / CC1=CC(OC=C2C(=O)NC3c4ccccc4CC23)OC1=O (stereo not drawn) [Compound A1] : value?
Completion: 6.023

====

Test system: Soybean seeds cv. Toliman
Experiment: Soybean seedling emergence in saturated warm test (seed treatment)
Type: in vivo
Settings: 0.05 g ai/kg seeds, 10 days 25/23° C.
Quantity name: Seedling emergence (%)
Respond with the bare value in %.

Examples with their reported Seedling emergence (%) follow.
Prompt: Soybean seeds cv. Toliman / Seedling emergence (%) / CC1=CC(OC=C2C(=O)N(c3ccccc3)C3c4ccccc4CC23)OC1=O (stereo not drawn) : value?
Completion: 81

Prompt: Soybean seeds cv. Toliman / Seedling emergence (%) / CC1=CC(OC=C2C(=O)NC3c4ccccc4CC23)OC1=O (stereo not drawn) [Compound A1] : value?
Completion: 91

Prompt: Soybean seeds cv. Toliman / Seedling emergence (%) / CC1=CC(OC=C2C(=O)NC3c4cccc(Br)c4CC23)OC1=O (stereo not drawn) : value?
Completion: 91.5

Prompt: Soybean seeds cv. Toliman / Seedling emergence (%) / CC(=O)N1C(=O)C(=COC2C=C(C)C(=O)O2)C2Cc3ccccc3C21 (stereo not drawn) : value?
Completion: 86

Prompt: Soybean seeds cv. Toliman / Seedling emergence (%) / CC1=CC(OC=C2C(=O)NC3c4ccccc4CC23)OC1=O (stereo not drawn) [Compound B1] : value?
Completion: 89

Continuing:
Prompt: Soybean seeds cv. Toliman / Seedling emergence (%) / CC1=CC(OC=C2C(=O)N(C(=O)OC(C)(C)C)C3c4ccccc4CC23)OC1=O (mixture of isomers) : value?
Completion: 91.5

====

Test system: Soybean seeds cv. Toliman
Experiment: Soybean seedling emergence in saturated cold test (seed treatment)
Format: in vivo
Conditions: 0.05 g ai/kg seeds, FS100, 10 days 10° C. dark then 10 days 25/23° C.
Protocol: Soybean seeds cv. Toliman were treated with a test compound of formula I formulated as FS100, at a dose of 0.05 g ai/kg, 0.005 g ai/kg, or 0.0001 g ai/kg seeds. Seeds were planted on 2 cm levelled pre-chilled moist sand and covered with a 2 cm layer of a mixture of steamed soil and sand (1:1). […] Seedling emergence in % and dry mass of above parts of seedling per tray was determined at the end of the incubation period. […]
Measured Seedling emergence (%) of individual entries
Respond with the bare value in %.

Examples with their reported Seedling emergence (%) follow.
Prompt: Sample CC1=CC(OC=C2C(=O)N(C(=O)OC(C)(C)C)C3c4ccccc4CC23)OC1=O (mixture of isomers) [Compound A5] — what was its Seedling emergence (%)?
Completion: 55

Prompt: Sample CC1=CC(OC=C2C(=O)NC3c4cccc(Br)c4CC23)OC1=O (stereo not drawn) [Compound A2] — what was its Seedling emergence (%)?
Completion: 56

Prompt: Sample CC1=CC(OC=C2C(=O)NC3c4ccccc4CC23)OC1=O (stereo not drawn) [Compound B1] — what was its Seedling emergence (%)?
Completion: 44.5

Prompt: Sample CC1=CC(OC=C2C(=O)NC3c4ccccc4CC23)OC1=O (stereo not drawn) [Compound A1] — what was its Seedling emergence (%)?
Completion: 54.5

Prompt: Sample CC(=O)N1C(=O)C(=COC2C=C(C)C(=O)O2)C2Cc3ccccc3C21 (stereo not drawn) [Compound A4] — what was its Seedling emergence (%)?
Completion: 61.5

Here is another compound to look at.
Prompt: Sample CC1=CC(OC=C2C(=O)N(c3ccccc3)C3c4ccccc4CC23)OC1=O (stereo not drawn) [Compound A3] — what was its Seedling emergence (%)?
Completion: 51.5
